system under test: T1, human C5 (human, UniProt P01031 19-1676)
T1 construct: Bought human C5 (EMD #204888, said elsewhere to be purified from plasma); also called hC5; complement component 5
test details: SPR, mAb captured via anti-hFc, dissociation at pH7.4 vs pH6.0, 25C
Mark false (0) for t1/2 Ratio pH7.4/pH6.0 values under 9, and true (1) for everything at or above.

Confirm if t1/2 Ratio pH7.4/pH6.0 reported for the binder H4H12166P2 (antibody, human IgG4, V domains shown, Histidine-mutated CDR variant of H4H12166P; human IgG4 Fc with S108P) VH: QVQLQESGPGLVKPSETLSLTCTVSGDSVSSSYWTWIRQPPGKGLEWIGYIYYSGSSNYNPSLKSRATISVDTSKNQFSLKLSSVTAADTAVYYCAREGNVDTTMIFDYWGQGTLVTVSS VL: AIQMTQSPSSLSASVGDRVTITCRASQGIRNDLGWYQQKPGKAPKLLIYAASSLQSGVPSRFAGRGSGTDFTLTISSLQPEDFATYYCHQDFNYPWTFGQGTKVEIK is 9 or above.
true (1)

Confirm if t1/2 Ratio pH7.4/pH6.0 reported for the binder H4H12175P (antibody, human IgG4, V domains shown, Human IgG4 Fc with S108P hinge mutation (H4H)) VH: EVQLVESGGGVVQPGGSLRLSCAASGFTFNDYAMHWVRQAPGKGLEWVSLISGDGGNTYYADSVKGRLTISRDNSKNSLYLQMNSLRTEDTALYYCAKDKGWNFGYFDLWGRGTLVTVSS VL: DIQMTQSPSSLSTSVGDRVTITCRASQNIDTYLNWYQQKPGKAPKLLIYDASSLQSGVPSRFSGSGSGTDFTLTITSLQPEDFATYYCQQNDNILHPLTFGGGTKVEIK is 9 or above.
false (0)

Confirm if t1/2 Ratio pH7.4/pH6.0 reported for the binder H4H12166P10 (antibody, human IgG4, V domains shown, Histidine-mutated CDR variant of H4H12166P; human IgG4 Fc with S108P) VH: QVQLQESGPGLVKPSETLSLTCTVSGDSVSSSYWTWIRQPPGKGLEWIGYIYYSGSSNYNPSLKSRATISVDTSKNQFSLKLSSVTAADTAVYYCAREGNVDTTMIHDYWGQGTLVTVSS VL: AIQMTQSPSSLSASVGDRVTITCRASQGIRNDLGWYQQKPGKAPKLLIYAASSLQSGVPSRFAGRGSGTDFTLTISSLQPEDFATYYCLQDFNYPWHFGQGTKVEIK is 9 or above.
true (1)

Confirm if t1/2 Ratio pH7.4/pH6.0 reported for the binder H4H12166P7 (antibody, human IgG4, V domains shown, Histidine-mutated CDR variant of H4H12166P; human IgG4 Fc with S108P) VH: QVQLQESGPGLVKPSETLSLTCTVSGDSVSSSYWTWIRQPPGKGLEWIGYIYYSGSSNYNPSLKSRATISVDTSKNQFSLKLSSVTAADTAVYYCAREHNVDTTMIFDYWGQGTLVTVSS VL: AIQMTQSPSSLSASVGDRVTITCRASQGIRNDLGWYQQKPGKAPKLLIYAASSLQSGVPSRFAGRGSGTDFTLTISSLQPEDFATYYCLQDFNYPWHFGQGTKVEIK is 9 or above.
true (1)

Confirm if t1/2 Ratio pH7.4/pH6.0 reported for the binder H4H11686N (antibody, V domains shown, also called H2M11686N) VH: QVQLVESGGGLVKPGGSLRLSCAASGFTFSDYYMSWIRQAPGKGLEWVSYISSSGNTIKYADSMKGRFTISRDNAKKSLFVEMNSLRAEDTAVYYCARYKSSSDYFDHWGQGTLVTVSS VL: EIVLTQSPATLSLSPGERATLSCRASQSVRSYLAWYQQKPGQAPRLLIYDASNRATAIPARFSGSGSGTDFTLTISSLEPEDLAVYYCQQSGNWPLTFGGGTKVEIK is 9 or above.
false (0)
